# method-summary: Selectivity ratio of human HCT8 cells over CHO cells
# Type: ADME, cell-based
# study-conditions: Chinese hamster (CHO), HCT8 cells versus CHO cells
measured-quantity: selectivity ratio
Give only the figure.

Input line: Value lookup for selectivity ratio; key = COC(=O)CC[C@@H](C)[C@H]1CC[C@H]2[C@@H]3CC[C@@H]4C[C@H](OC(=O)C[N+]5(C)CCCCC5)CC[C@]4(C)[C@H]3CC[C@]12C.[Cl-]
Output line: 5
